# Experiment description: Metabolic stability in rat plasma assessed as compound remaining at 2 uM after 0.5 hrs
# Assay type: ADME, cell-free
# Test conditions: read-out: Stability
Experimental readout: remaining at 0.5 h, 2 µM

Any idea what remaining at 0.5 h, 2 µM was measured for COC(=O)N[C@@H](C(=O)N1CCC[C@H]1C(=O)Nc1ccc(-c2ccc(NC(=O)[C@@H]3CCCN3C(=O)[C@H](NC(=O)OC)c3ccccc3)cc2)cc1)c1ccccc1 ?
> 99%

###

# Measured target: CYP2C9 (Homo sapiens)
# Sequence (P11712 whole entry): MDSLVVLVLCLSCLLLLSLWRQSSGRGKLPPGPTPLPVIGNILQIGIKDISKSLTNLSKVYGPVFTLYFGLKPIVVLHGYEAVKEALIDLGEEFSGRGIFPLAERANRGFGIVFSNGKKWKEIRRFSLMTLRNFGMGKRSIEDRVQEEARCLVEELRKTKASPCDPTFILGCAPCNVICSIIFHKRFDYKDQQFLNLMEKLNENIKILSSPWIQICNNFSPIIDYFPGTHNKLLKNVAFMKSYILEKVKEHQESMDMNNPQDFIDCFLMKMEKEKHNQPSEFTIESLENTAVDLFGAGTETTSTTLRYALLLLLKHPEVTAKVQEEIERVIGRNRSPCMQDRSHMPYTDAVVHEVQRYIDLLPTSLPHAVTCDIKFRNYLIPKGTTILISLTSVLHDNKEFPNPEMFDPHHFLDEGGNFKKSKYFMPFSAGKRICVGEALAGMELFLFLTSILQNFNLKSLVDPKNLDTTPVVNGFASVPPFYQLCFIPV
# Experiment description: Inhibition of CYP2C9 (unknown origin) at 10 uM relative to control
# Format: ADME
Known inhibition at 10 µM of a selection of compounds
Provide only the numeric value, understood in %.

- Smiles input: "Nc1ccc(S(=O)(=O)Nc2ccnn2-c2ccccc2)cc1"
  Measured target: "CYP2C9 (Homo sapiens)"
  Experimental readout: "inhibition at 10 µM"
  Measurement unit: "%"
  Measured number: 75.8

Fill in: inhibition at 10 µM of COC(=O)N[C@@H](C(=O)N1CCC[C@H]1C(=O)Nc1ccc(-c2ccc(NC(=O)[C@@H]3CCCN3C(=O)[C@H](NC(=O)OC)c3ccccc3)cc2)cc1)c1ccccc1 is ___
0

###

# Experiment description: Metabolic stability in rat plasma assessed as compound remaining at 2 uM after 4 hrs
# Type: ADME, cell-free
# Test conditions: read-out: Stability
Experimental readout: remaining at 4 h, 2 µM

Can you share its remaining at 4 h, 2 µM? I mean this compound: COC(=O)N[C@@H](C(=O)N1CCC[C@H]1C(=O)Nc1ccc(-c2ccc(NC(=O)[C@@H]3CCCN3C(=O)[C@H](NC(=O)OC)c3ccccc3)cc2)cc1)c1ccccc1
> 99%

###

# Experiment description: Selectivity index, ratio of cytotoxicity for human Huh7.5.1 cells to EC50 for Hepatitis C virus genotype 1b
# Assay type: toxicity, cell-based, Huh-7
# Test conditions: read-out: Selectivity Index
Examples of molecules with documented selectivity ratio follow.

Can you share its selectivity ratio? I mean this molecule: CN(C)[C@@H](C(=O)N1CCC[C@H]1C(=O)Nc1ccc(-c2ccc(NC(=O)[C@@H]3CCCN3C(=O)[C@@H](c3ccccc3)N(C)C)cc2)cc1)c1ccccc1
> 58000

Next entry: COC(=O)N[C@@H](C(=O)N1CCC[C@H]1C(=O)Nc1ccc(-c2ccc(NC(=O)[C@@H]3CCCN3C(=O)[C@H](NC(=O)OC)c3ccccc3)cc2)cc1)c1ccccc1
> 893000

Could you do the same for CCN(CC)[C@@H](C(=O)N1CCC[C@H]1C(=O)Nc1ccc(-c2ccc(NC(=O)[C@@H]3CCCN3C(=O)[C@@H](c3ccccc3)N(CC)CC)cc2)cc1)c1ccccc1 , please?
> 93000

###

# System: Hepatitis C virus
# Experiment description: Antiviral activity against Hepatitis C virus type 2a expressing JFH1 assessed as inhibition of infection in human Huh7.5.1 cells after 3 days by luciferase reporter gene assay
# Type: functional, organism-based, Hepacivirus hominis
# Test conditions: genotype 2a, Huh-7, 72 h
Listed here: items and their measured log10 EC50.
All values: base-10 log of EC50 in nM.

Worked cases, answers included:
- Smiles input: "COC(=O)N[C@@H](C(=O)N1CCC[C@H]1C(=O)Nc1ccc(-c2ccc(NC(=O)[C@@H]3CCCN3C(=O)[C@H](NC(=O)OC)C(C)C)cc2)cc1)C(C)C"
  log10 EC50: 1.18
- Smiles input: "COC(=O)N[C@H](C(=O)N1CCC[C@H]1C(=O)Nc1ccc(-c2ccc(NC(=O)[C@@H]3CCCN3C(=O)[C@@H](NC(=O)OC)C(C)(C)C)cc2)cc1)C(C)(C)C"
  log10 EC50: 1.38
- Smiles input: "CCN(CC)[C@@H](C(=O)N1CCC[C@H]1C(=O)Nc1ccc(-c2ccc(NC(=O)[C@@H]3CCCN3C(=O)[C@@H](c3ccccc3)N(CC)CC)cc2)cc1)c1ccccc1"
  log10 EC50: 0.34
- Smiles input: "COC(=O)N[C@H](C(=O)N1CCC[C@H]1C(=O)Nc1ccc(-c2ccc(NC(=O)[C@@H]3CCCN3C(=O)[C@@H](NC(=O)OC)C(C)C)cc2)cc1)C(C)C"
  log10 EC50: 2.08
- Smiles input: "O=C(Nc1ccc(-c2ccc(NC(=O)[C@@H]3CCCN3C(=O)[C@H]3CCCO3)cc2)cc1)[C@@H]1CCCN1C(=O)[C@H]1CCCO1"
  log10 EC50: 2.60

May I ask what log10 EC50 has been recorded for CN(C)[C@@H](C(=O)N1CCC[C@H]1C(=O)Nc1ccc(-c2ccc(NC(=O)[C@@H]3CCCN3C(=O)[C@@H](c3ccccc3)N(C)C)cc2)cc1)c1ccccc1 ?
0.36

Same question, COC(=O)N[C@@H](C(=O)N1CCC[C@H]1C(=O)Nc1ccc(-c2ccc(NC(=O)[C@@H]3CCCN3C(=O)[C@H](NC(=O)OC)c3ccccc3)cc2)cc1)c1ccccc1 this time
-0.59

###

# Measured target: Voltage-gated inwardly rectifying potassium channel KCNH2 (Homo sapiens)
# Sequence (Q12809 whole entry): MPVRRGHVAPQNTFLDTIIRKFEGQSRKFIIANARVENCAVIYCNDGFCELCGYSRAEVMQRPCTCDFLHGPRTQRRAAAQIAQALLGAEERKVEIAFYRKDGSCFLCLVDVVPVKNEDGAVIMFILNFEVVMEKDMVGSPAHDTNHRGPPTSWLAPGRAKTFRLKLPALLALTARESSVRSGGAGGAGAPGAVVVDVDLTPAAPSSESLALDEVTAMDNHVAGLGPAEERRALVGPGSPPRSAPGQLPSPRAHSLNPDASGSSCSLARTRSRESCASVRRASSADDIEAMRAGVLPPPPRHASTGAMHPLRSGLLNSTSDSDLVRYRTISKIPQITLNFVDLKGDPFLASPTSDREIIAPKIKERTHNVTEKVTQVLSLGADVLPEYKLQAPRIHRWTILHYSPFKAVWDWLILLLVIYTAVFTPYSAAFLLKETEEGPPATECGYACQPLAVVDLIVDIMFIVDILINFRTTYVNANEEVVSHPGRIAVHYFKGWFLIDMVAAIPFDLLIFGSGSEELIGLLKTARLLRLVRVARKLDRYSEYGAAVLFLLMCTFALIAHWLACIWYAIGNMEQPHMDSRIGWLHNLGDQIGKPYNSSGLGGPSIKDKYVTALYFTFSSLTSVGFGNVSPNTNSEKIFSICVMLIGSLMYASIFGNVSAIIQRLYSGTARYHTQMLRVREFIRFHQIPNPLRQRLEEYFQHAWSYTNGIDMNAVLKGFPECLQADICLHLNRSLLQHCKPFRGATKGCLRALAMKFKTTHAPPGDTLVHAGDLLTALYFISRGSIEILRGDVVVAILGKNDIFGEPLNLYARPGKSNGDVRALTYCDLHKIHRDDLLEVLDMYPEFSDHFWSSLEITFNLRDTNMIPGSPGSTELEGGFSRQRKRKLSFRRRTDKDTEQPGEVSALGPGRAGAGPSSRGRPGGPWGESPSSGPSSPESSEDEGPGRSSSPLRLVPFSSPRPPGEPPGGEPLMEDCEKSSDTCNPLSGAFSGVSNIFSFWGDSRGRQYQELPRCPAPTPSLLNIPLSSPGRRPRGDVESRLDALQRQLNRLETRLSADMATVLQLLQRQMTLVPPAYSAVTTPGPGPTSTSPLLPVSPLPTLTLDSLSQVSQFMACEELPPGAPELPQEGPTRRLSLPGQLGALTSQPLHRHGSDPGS
# Experiment description: Binding affinity to human ERG by fluorescence polarization assay
Experimental readout: EC50

Entry COC(=O)N[C@@H](C(=O)N1CCC[C@H]1C(=O)Nc1ccc(-c2ccc(NC(=O)[C@@H]3CCCN3C(=O)[C@H](NC(=O)OC)c3ccccc3)cc2)cc1)c1ccccc1 , system Voltage-gated inwardly rectifying potassium channel KCNH2 (Homo sapiens): what EC50 was measured?
9.8 µM
